- System Under Test: Orexin receptor type 2 (Homo sapiens)
- Assay Method Text: Agonist activity at human OX2 receptor overexpressed in CHO-RD-HGA16 cells assessed as calcium mobilization after 15 mins by fluorescence assay
pEC50: −log10 of the molar value. Where a SMILES comes first, the peptide text is derived from it.
Measure: pEC50

* CC[C@H](C)[C@H](NC(=O)CNC(=O)[C@H](C)NC(=O)[C@H](C)NC(=O)[C@H](Cc1c[nH]cn1)NC(=O)[C@H](CC(N)=O)NC(=O)CNC(=O)[C@H](C)NC(=O)CNC(=O)[C@H](Cc1c[nH]cn1)NC(=O)[C@H](CC(C)C)NC(=O)[C@@H](N)CC(C)C)C(=O)N[C@@H](CC(C)C)C(=O)N[C@H](C(=O)N[C@@H](CC(C)C)C(N)=O)[C@@H](C)O (H-LLHGAGNHAAGILTL-NH2) | 6.02
* CC[C@H](C)[C@H](NC(=O)CNC(=O)[C@H](C)NC(=O)[C@H](C)NC(=O)[C@H](Cc1cnc[nH]1)NC(=O)[C@H](CC(N)=O)NC(=O)CNC(=O)[C@H](C)NC(=O)CNC(=O)[C@H](C)NC(=O)[C@H](CC(C)C)NC(=O)[C@H](CC(C)C)NC(=O)[C@H](CCC(=O)O)NC(=O)[C@@H](N)Cc1ccc(O)cc1)C(=O)N[C@@H](CC(C)C)C(=O)N[C@H](C(=O)N[C@@H](CC(C)C)C(N)=O)[C@@H](C)O (H-YELLAGAGNHAAGILTL-NH2) | 5.72
* CC[C@H](C)[C@H](NC(=O)CNC(=O)[C@H](C)NC(=O)[C@H](C)NC(=O)[C@H](Cc1cnc[nH]1)NC(=O)[C@H](CC(N)=O)NC(=O)CNC(=O)[C@H](C)NC(=O)CNC(=O)[C@H](Cc1cnc[nH]1)NC(=O)[C@H](CC(C)C)NC(=O)[C@H](CC(C)C)NC(=O)[C@H](CCC(=O)O)NC(=O)[C@@H](N)Cc1ccc(O)cc1)C(=O)N[C@@H](CC(C)C)C(=O)N[C@H](C(=O)N[C@@H](CC(C)C)C(N)=O)[C@@H](C)O | 6.73

###

- Species: Homo sapiens
- Assay Method Text: Selectivity ratio of EC50 for human OX2 receptor to EC50 for human OX1 receptor
Where a SMILES comes first, the peptide text is derived from it.
Measure: Ratio EC50

- CC[C@H](C)[C@H](NC(=O)CNC(=O)[C@H](C)NC(=O)[C@H](C)NC(=O)[C@H](Cc1cnc[nH]1)NC(=O)[C@H](CC(N)=O)NC(=O)CNC(=O)[C@H](C)NC(=O)CNC(=O)[C@H](Cc1cnc[nH]1)NC(=O)[C@H](CC(C)C)NC(=O)[C@H](CC(C)C)NC(=O)[C@@H]1CCCN1C(=O)[C@@H](N)Cc1ccc(O)cc1)C(=O)N[C@@H](CC(C)C)C(=O)N[C@H](C(=O)N[C@@H](CC(C)C)C(N)=O)[C@@H](C)O (H-YPLLHGAGNHAAGILTL-NH2): 5.1
- CC[C@H](C)[C@H](NC(=O)CNC(=O)[C@H](C)NC(=O)[C@H](C)NC(=O)[C@H](Cc1cnc[nH]1)NC(=O)[C@H](CC(N)=O)NC(=O)CNC(=O)[C@H](CO)NC(=O)[C@H](C)NC(=O)[C@H](CCC(N)=O)NC(=O)[C@H](CC(C)C)NC(=O)[C@H](CC(C)C)NC(=O)[C@H](CCCNC(=N)N)NC(=O)[C@H](CCC(N)=O)NC(=O)[C@H](CC(C)C)NC(=O)[C@@H](N)CCCNC(=N)N)C(=O)N[C@@H](CC(C)C)C(=O)N[C@H](C(=O)N[C@@H](CCSC)C(N)=O)[C@@H](C)O (H-RLQRLLQASGNHAAGILTM-NH2): 0.7

###

- System Under Test: Orexin receptor type 2 (Homo sapiens) (UniProt O43614)
- Sequence (whole entry): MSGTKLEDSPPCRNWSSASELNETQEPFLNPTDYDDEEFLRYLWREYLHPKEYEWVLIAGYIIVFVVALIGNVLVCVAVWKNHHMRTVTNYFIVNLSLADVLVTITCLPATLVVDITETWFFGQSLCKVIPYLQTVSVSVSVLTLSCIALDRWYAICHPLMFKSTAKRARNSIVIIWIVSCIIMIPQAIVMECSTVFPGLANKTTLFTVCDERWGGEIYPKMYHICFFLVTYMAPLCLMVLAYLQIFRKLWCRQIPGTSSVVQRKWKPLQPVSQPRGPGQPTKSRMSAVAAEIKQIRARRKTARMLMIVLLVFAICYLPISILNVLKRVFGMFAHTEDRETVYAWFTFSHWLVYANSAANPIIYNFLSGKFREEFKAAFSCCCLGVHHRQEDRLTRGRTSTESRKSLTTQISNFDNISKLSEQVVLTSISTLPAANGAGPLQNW
- Assay Method Text: Agonist activity at human OX2 receptor overexpressed in CHO-RD-HGA16 cells assessed as calcium mobilization at 10 uM after 15 mins by fluorescence assay relative to control
- Format: functional, cell-based
Where a SMILES comes first, the peptide text is derived from it.
Percent activation at 10 uM overview
Measure: Percent activation at 10 uM

• CC[C@H](C)[C@H](NC(=O)CNC(=O)[C@H](C)NC(=O)[C@H](C)NC(=O)[C@H](Cc1cnc[nH]1)NC(=O)[C@H](CC(N)=O)NC(=O)CNC(=O)[C@H](C)NC(=O)CNC(=O)[C@H](Cc1cnc[nH]1)NC(=O)[C@H](CC(C)C)NC(=O)[C@H](CC(C)C)NC(=O)[C@H](CCC(=O)O)NC(=O)[C@@H](N)Cc1ccc(O)cc1)C(=O)N[C@H](CC(C)C)C(=O)N[C@H](C(=O)N[C@@H](CC(C)C)C(N)=O)[C@@H](C)O = < 50%
• CC[C@H](C)[C@H](NC(=O)CNC(=O)[C@H](C)NC(=O)[C@H](C)NC(=O)[C@H](Cc1cnc[nH]1)NC(=O)[C@H](CC(N)=O)NC(=O)CNC(=O)[C@H](C)NC(=O)CNC(=O)[C@H](Cc1cnc[nH]1)NC(=O)[C@H](CC(C)C)NC(=O)[C@H](CC(C)C)NC(=O)[C@H](CCC(=O)O)NC(=O)[C@@H](N)Cc1ccc(O)cc1)C(=O)N[C@@H](CC(C)C)C(=O)N[C@@H](C)C(=O)N[C@@H](CC(C)C)C(N)=O (H-YELLHGAGNHAAGILAL-NH2) = < 50%

###

- System Under Test: Orexin receptor type 2 (Homo sapiens)
- Sequence (O43614 whole entry): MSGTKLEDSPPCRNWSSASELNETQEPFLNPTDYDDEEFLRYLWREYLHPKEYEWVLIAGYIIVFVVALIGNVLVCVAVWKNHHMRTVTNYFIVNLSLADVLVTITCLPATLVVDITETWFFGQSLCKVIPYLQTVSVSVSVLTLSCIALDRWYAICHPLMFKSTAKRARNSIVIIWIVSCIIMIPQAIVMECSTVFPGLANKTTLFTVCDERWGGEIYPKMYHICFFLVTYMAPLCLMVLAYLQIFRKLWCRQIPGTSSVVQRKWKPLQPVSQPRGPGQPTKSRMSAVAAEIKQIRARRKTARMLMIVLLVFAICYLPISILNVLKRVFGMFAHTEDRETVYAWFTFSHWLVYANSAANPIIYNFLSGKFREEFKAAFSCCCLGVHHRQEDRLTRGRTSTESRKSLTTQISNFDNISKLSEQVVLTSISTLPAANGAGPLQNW
- Assay Method Text: Agonist activity at human OX2 receptor overexpressed in CHO-RD-HGA16 cells assessed as calcium mobilization after 15 mins by fluorescence assay
Where a SMILES comes first, the peptide text is derived from it.
# maps each entry to its log10 EC50
Measure: log10 EC50 (log10 of the value in nM)

• CC[C@H](C)[C@H](NC(=O)CNC(=O)[C@H](C)NC(=O)[C@H](C)NC(=O)[C@H](Cc1cnc[nH]1)NC(=O)[C@H](CC(N)=O)NC(=O)CNC(=O)[C@H](C)NC(=O)[C@H](C)NC(=O)[C@H](Cc1cnc[nH]1)NC(=O)[C@H](CC(C)C)NC(=O)[C@H](CC(C)C)NC(=O)[C@H](CCC(=O)O)NC(=O)[C@@H](N)Cc1ccc(O)cc1)C(=O)N[C@@H](CC(C)C)C(=O)N[C@H](C(=O)N[C@@H](CC(C)C)C(N)=O)[C@@H](C)O (H-YELLHAAGNHAAGILTL-NH2) = 3.16
• CC[C@H](C)[C@H](NC(=O)CNC(=O)[C@H](C)NC(=O)[C@H](C)NC(=O)[C@H](Cc1cnc[nH]1)NC(=O)[C@H](CC(N)=O)NC(=O)CNC(=O)[C@H](C)NC(=O)CNC(=O)[C@@H](Cc1cnc[nH]1)NC(=O)[C@H](CC(C)C)NC(=O)[C@H](CC(C)C)NC(=O)[C@H](CCC(=O)O)NC(=O)[C@@H](N)Cc1ccc(O)cc1)C(=O)N[C@@H](CC(C)C)C(=O)N[C@H](C(=O)N[C@@H](CC(C)C)C(N)=O)[C@@H](C)O = 2.79
• CC[C@H](C)[C@H](NC(=O)CNC(=O)[C@H](C)NC(=O)[C@H](C)NC(=O)[C@H](Cc1cnc[nH]1)NC(=O)[C@H](CC(N)=O)NC(=O)CNC(=O)[C@H](C)NC(=O)CNC(=O)[C@H](Cc1cnc[nH]1)NC(=O)[C@H](CC(C)C)NC(=O)[C@H](CC(C)C)NC(=O)[C@H](C)NC(=O)[C@@H](N)Cc1ccc(O)cc1)C(=O)N[C@@H](CC(C)C)C(=O)N[C@H](C(=O)N[C@@H](CC(C)C)C(N)=O)[C@@H](C)O (H-YALLHGAGNHAAGILTL-NH2) = 2.64
• CC[C@H](C)[C@H](NC(=O)CNC(=O)[C@H](C)NC(=O)[C@H](C)NC(=O)[C@H](C)NC(=O)[C@H](CC(N)=O)NC(=O)CNC(=O)[C@H](C)NC(=O)CNC(=O)[C@H](Cc1cnc[nH]1)NC(=O)[C@H](CC(C)C)NC(=O)[C@H](CC(C)C)NC(=O)[C@H](CCC(=O)O)NC(=O)[C@@H](N)Cc1ccc(O)cc1)C(=O)N[C@@H](CC(C)C)C(=O)N[C@H](C(=O)N[C@@H](CC(C)C)C(N)=O)[C@@H](C)O (H-YELLHGAGNAAAGILTL-NH2) = 3.20
• CC[C@H](C)[C@H](NC(=O)CNC(=O)[C@H](C)NC(=O)[C@H](C)NC(=O)[C@H](Cc1cnc[nH]1)NC(=O)[C@H](CC(N)=O)NC(=O)CNC(=O)[C@H](C)NC(=O)CNC(=O)[C@H](Cc1cnc[nH]1)NC(=O)[C@H](CC(C)C)NC(=O)[C@H](CC(C)C)NC(=O)[C@H](CCC(=O)O)NC(=O)[C@H](C)N)C(=O)N[C@@H](CC(C)C)C(=O)N[C@H](C(=O)N[C@@H](CC(C)C)C(N)=O)[C@@H](C)O (H-AELLHGAGNHAAGILTL-NH2) = 3.68
• CC[C@H](C)[C@H](NC(=O)CNC(=O)[C@H](C)NC(=O)[C@H](C)NC(=O)[C@H](Cc1cnc[nH]1)NC(=O)[C@H](C)NC(=O)CNC(=O)[C@H](C)NC(=O)CNC(=O)[C@H](Cc1cnc[nH]1)NC(=O)[C@H](CC(C)C)NC(=O)[C@H](CC(C)C)NC(=O)[C@H](CCC(=O)O)NC(=O)[C@@H](N)Cc1ccc(O)cc1)C(=O)N[C@@H](CC(C)C)C(=O)N[C@H](C(=O)N[C@@H](CC(C)C)C(N)=O)[C@@H](C)O (H-YELLHGAGAHAAGILTL-NH2) = 3.37
• CC[C@H](C)[C@H](NC(=O)CNC(=O)[C@H](C)NC(=O)[C@H](C)NC(=O)[C@H](Cc1cnc[nH]1)NC(=O)[C@H](CC(N)=O)NC(=O)CNC(=O)[C@H](C)NC(=O)CNC(=O)[C@H](Cc1cnc[nH]1)NC(=O)[C@H](CC(C)C)NC(=O)[C@H](CC(C)C)NC(=O)[C@@H]1CCCN1C(=O)[C@@H](N)Cc1ccc(O)cc1)C(=O)N[C@@H](CC(C)C)C(=O)N[C@H](C(=O)N[C@@H](CC(C)C)C(N)=O)[C@@H](C)O (H-YPLLHGAGNHAAGILTL-NH2) = 2.86
• CC[C@H](C)[C@H](NC(=O)CNC(=O)[C@H](C)NC(=O)[C@H](C)NC(=O)[C@H](Cc1cnc[nH]1)NC(=O)[C@H](CC(N)=O)NC(=O)CNC(=O)[C@H](C)NC(=O)CNC(=O)[C@H](Cc1cnc[nH]1)NC(=O)[C@H](CC(C)C)NC(=O)[C@@H]1CCCN1C(=O)[C@H](CCC(=O)O)NC(=O)[C@@H](N)Cc1ccc(O)cc1)C(=O)N[C@@H](CC(C)C)C(=O)N[C@H](C(=O)N[C@@H](CC(C)C)C(N)=O)[C@@H](C)O (H-YEPLHGAGNHAAGILTL-NH2) = 3.00
• CC[C@H](C)[C@H](NC(=O)CNC(=O)[C@H](C)NC(=O)[C@H](C)NC(=O)[C@H](Cc1cnc[nH]1)NC(=O)[C@H](CC(N)=O)NC(=O)CNC(=O)[C@H](C)NC(=O)CNC(=O)[C@H](Cc1cnc[nH]1)NC(=O)[C@H](CC(C)C)NC(=O)[C@H](C)NC(=O)[C@H](CCC(=O)O)NC(=O)[C@@H](N)Cc1ccc(O)cc1)C(=O)N[C@@H](CC(C)C)C(=O)N[C@H](C(=O)N[C@@H](CC(C)C)C(N)=O)[C@@H](C)O (H-YEALHGAGNHAAGILTL-NH2) = 3.28

All figures here come from ChEMBL document CHEMBL3102805.
